Reported viability at 1 µM is given for each of the following molecules.
Test system: 501Mel cells (parental)
Test: Kinase inhibitor library screening, PrestoBlue cell viability, 1 or 10 μM, 72 h
Conditions: Homo sapiens, 72 h, read-out: cell viability, 501Mel Parental, 1μΜ
Quote the value and follow it with the unit of measurement.

Sample records with viability at 1 µM:
> print(dat)
                                 smilestext           targetorsystem  resultvalue
1  Cc1cc(Nc2ncnc3ccc(NC4=NC(C)(C)CO4)cc23)ccc1Oc1ccn2ncnc2c1  501Mel cells (parental)         103%
2  CN(C)Cc1cccc(N/C(=C2\C(=O)Nc3cc(C(N)=O)ccc32)c2ccccc2)c1  501Mel cells (parental)        95.5%
3              Oc1c2ccccc2c2c3c(cccc13)N=N2  501Mel cells (parental)         107%
4  CCN(CC)CCCCNc1ncc2cc(-c3cc(OC)cc(OC)c3)c(NC(=O)NC(C)(C)C)nc2n1  501Mel cells (parental)         103%
5  CN(C)C/C=C/C(=O)Nc1cc2c(Nc3ccc(F)c(Cl)c3)ncnc2cc1O[C@H]1CCOC1  501Mel cells (parental)         102%

Item under review: `Oc1cccc(-c2nc(N3CCOCC3)c3oc4ncccc4c3n2)c1` . Reported viability at 1 µM?
36.3%

What do you have for `Cn1cc(C2=C(c3ccc(Cl)cc3Cl)C(=O)NC2=O)c2ccccc21` ?
101%

###

System: 501Mel cells (parental)
Assay: Kinase inhibitor library screening, PrestoBlue cell viability, 1 or 10 μM, 72 h
Settings: 501Mel Parental; 1μΜ; 72 h; in %
measure: cell viability, 501Mel Parental, 1μΜ

Sample records with cell viability, 501Mel Parental, 1μΜ:
> print(dat)
                                   compound           targetorsystem  resultvalue
1  Nc1ncnc2c1c(-c1cccc(OCc3ccccc3)c1)cn2C1CC(CN2CCCC2)C1 (centres unmarked)  501Mel cells (parental)         80.8
2  O=C(NOCC1CC1)c1ccc(F)c(F)c1Nc1ccc(I)cc1Cl  501Mel cells (parental)         64.1
3  CC(C)(C)c1cc(/C=C(\C#N)C(N)=S)cc(C(C)(C)C)c1O  501Mel cells (parental)        115.0
4  Cc1cnc(Nc2ccc(OCCN3CCCC3)cc2)nc1Nc1cccc(S(=O)(=O)NC(C)(C)C)c1 [TG101348 (SAR302503)]  501Mel cells (parental)         98.7
5  CN1CCN(c2ccc3nc(-c4c(N)c5c(F)cccc5[nH]c4=O)[nH]c3c2)CC1  501Mel cells (parental)        103.1

Query the reported cell viability, 501Mel Parental, 1μΜ for 501Mel cells (parental); item: `Nc1cccc(-c2cc3c(Oc4cccc(O)c4)ncnc3[nH]2)c1`
90.4

What do you have for `CCO.N#CC(=C(/N)Sc1ccccc1N)/C(C#N)=C(\N)Sc1ccccc1N` ?
94.5

What do you have for `CCOc1cc2ncc(C#N)c(Nc3ccc(OCc4ccccn4)c(Cl)c3)c2cc1NC(=O)/C=C/CN(C)C` ?
96.7

###

Tested on: 501Mel-XP cells (Vemurafenib-resistant)
Assay: Kinase inhibitor library screening, PrestoBlue cell viability, 1 or 10 μM, 72 h
Settings: 501Mel XP; 10μΜ; 72 h; in %
Reported Cell viability in kinase inhibitor library screening, 501Mel XP, 10μΜ is given for each of the following compounds.
// no unit string in output, number only

> print(dat)
                                   compound  resultvalue
1  CC(C)(C)Cn1c(N)nc2ccc(-c3[nH]c(C(C)(C)C)nc3-c3ccc(F)cc3)nc21 [LY2228820]         82.4
2  CCCS(=O)(=O)Nc1ccc(F)c(C(=O)c2c[nH]c3ncc(-c4ccc(Cl)cc4)cc23)c1F [Vemurafenib (PLX4032)]         68.0
3  Cc1ccccc1-n1c(Cn2cnc3c(N)ncnc32)nc2cccc(C)c2c1=O [IC-87114]         83.6
4  O=C1NC(=O)/C(=C/c2ccc3nccc(-c4ccncc4)c3c2)S1 [GSK1059615]        0.262

Attention now shifts to the item below.
Item under review: Nc1nc(N)c2nc(-c3cccc(O)c3)c(-c3cccc(O)c3)nc2n1 [TG100-115] . Reported Cell viability in kinase inhibitor library screening, 501Mel XP, 10μΜ?
81.6

###

Reported cell viability (kinase inhibitor library screening) is given for each of the following compounds.
System: IGR37-XP cells (Vemurafenib-resistant)
Test: Kinase inhibitor library screening, PrestoBlue cell viability, 1 or 10 μM, 72 h
Conditions: IGR37 XP, 1μΜ; in %
// no unit string in output, number only

Sample records with cell viability (kinase inhibitor library screening):
> print(dat)
                                   compound  resultvalue
1         Oc1cc(O)cc(/C=C/c2ccc(O)c(O)c2)c1         92.0
2  COc1cc(Nc2c(C#N)cnc3cc(OCCCN4CCN(C)CC4)c(OC)cc23)c(Cl)cc1Cl [Bosutinib (SKI-606)]         98.8

Item under review: `COc1cc(Nc2ncc(F)c(Nc3ccc4c(n3)N(COP(=O)(O)O)C(=O)C(C)(C)O4)n2)cc(OC)c1OC` . Reported cell viability (kinase inhibitor library screening)?
89.9

What do you have for CCN(CC)CCNC(=O)c1c(C)[nH]c(/C=C2\C(=O)Nc3ccc(F)cc32)c1C.O=C(O)C[C@H](O)C(=O)O [Sunitinib Malate (Sutent)] ?
100.5

###

Reported cell viability (kinase inhibitor library screening) is given for each of the following compounds.
Test system: 501Mel cells (parental)
Assay: Kinase inhibitor library screening, PrestoBlue cell viability, 1 or 10 μM, 72 h
Conditions: 501Mel Parental, 10μΜ; in %
// no unit string in output, number only

Sample records with cell viability (kinase inhibitor library screening):
> print(dat)
                                 smilestext           targetorsystem  resultvalue
1  Cc1cccc(-c2[nH]c(C(C)(C)C)nc2-c2ccc3nccnc3c2)n1  501Mel cells (parental)         90.3
2  CCCNC(=O)Nc1ccc(Oc2ncnc3cc(OC)c(OC)cc23)cc1Cl  501Mel cells (parental)         91.7

Query the reported cell viability (kinase inhibitor library screening) for 501Mel cells (parental); item: `CCn1c(N)c(C(=O)NC)c(=O)c2ccc(C#C[C@@](C)(O)COC)nc21`
92.6

###

Test system: IGR37 cells (parental)
Assay: Kinase inhibitor library screening, PrestoBlue cell viability, 1 or 10 μM, 72 h
Conditions: IGR37 Parental; 10μΜ; 72 h; in %
measure: cell viability, IGR37 Parental, 10μΜ
// no unit string in output, number only

Sample records with cell viability, IGR37 Parental, 10μΜ:
> print(dat)
                                   compound  resultvalue
1  C=CC(=O)Nc1cccc(Sc2nc(Nc3ccc(N4CCN(C)CC4)cc3)ncc2Cl)c1        0.328
2  CN1CCN(c2cccc(Nc3nc4c(-c5ccc(S(C)(=O)=O)cc5)cccn4n3)c2)CC1         83.9

Item under review: `CNC(=O)c1ccccc1Nc1nc(Nc2ccc(N3CCOCC3)cc2OC)ncc1Cl` . Reported cell viability, IGR37 Parental, 10μΜ?
36.2

What do you have for `Nc1cccc(-c2cc3c(Oc4cccc(O)c4)ncnc3[nH]2)c1` ?
65.2

What do you have for CCOc1cc2ncc(C#N)c(Nc3ccc(F)c(Cl)c3)c2cc1NC(=O)/C=C/CN(C)C [Pelitinib (EKB-569)] ?
97.0

What do you have for CCc1cc(Nc2nccc(-c3c(-c4ccc(OC)c(C(=O)Nc5c(F)cccc5F)c4)nc4ccccn34)n2)c(OC)cc1N1CCC(N2CCN(S(C)(=O)=O)CC2)CC1 [GSK1904529A] ?
96.7

What do you have for `CCOc1cc2ncc(C#N)c(Nc3ccc(OCc4ccccn4)c(Cl)c3)c2cc1NC(=O)/C=C/CN(C)C` ?
66.7

What do you have for Nc1ncnc2c1c(-c1cccc(OCc3ccccc3)c1)cn2C1CC(CN2CCCC2)C1 (stereo not shown) ?
0.537

What do you have for `C=CC(=O)Nc1cc2c(Nc3ccc(F)c(Cl)c3)ncnc2cc1OCCCN1CCOCC1` ?
53.7

What do you have for `CC(=O)Nc1cccc(-n2c(=O)n(C3CC3)c(=O)c3c(Nc4ccc(I)cc4F)n(C)c(=O)c(C)c32)c1` ?
36.1

What do you have for `COc1cc2ncnc(Nc3ccc(O)c(Br)c3)c2cc1OC` ?
93.0

What do you have for C#Cc1cccc(Nc2ncnc3cc(OCCOC)c(OCCO)cc23)c1 [Desmethyl Erlotinib (CP-473420)] ?
92.4

What do you have for `Cc1cnc(Nc2ccc(N3CCN(C)CC3)cc2)nc1Nc1cccc(S(=O)(=O)NC(C)(C)C)c1` ?
6.5
